systemName: TNFa/TNFRI interaction (Homo sapiens, UniProt P01375)
Sequence (P01375 77-233 limits assumed): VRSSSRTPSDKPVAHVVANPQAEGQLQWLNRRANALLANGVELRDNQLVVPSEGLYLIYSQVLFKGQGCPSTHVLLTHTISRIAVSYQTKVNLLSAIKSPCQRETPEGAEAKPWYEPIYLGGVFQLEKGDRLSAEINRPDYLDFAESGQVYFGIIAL
experimentNotes: TNFa/TNFRI interaction displacement test
Assay type: binding
testSettings: compounds at 50 μM; human TNFRI 100 ng/ml
valueType: Displacement (%)

CN(CCCCN(Cc1cccnc1F)Cc1cn(S(=O)(=O)c2ccccc2)c2ccccc12)C1CCCCCCC1 [Compound 76]	154
CN(CCCCN(Cc1cccnc1)Cc1cn(-c2cccc(C(F)(F)F)c2)c2ccccc12)C1CCCCC1 [Compound 23]	140
O=[N+]([O-])c1ccccc1S(=O)(=O)NCCCN(Cc1cccnc1)Cc1cn(S(=O)(=O)c2ccccc2)c2ccccc12 [Compound 60]	2
CN(CCCCN(Cc1ccnc(F)c1)Cc1cn(S(=O)(=O)c2ccccc2)c2ccccc12)C1CCCCC1 [Compound 50]	138
CN(CCCCN(Cc1ccc(F)nc1)Cc1cn(S(=O)(=O)c2ccccc2)c2ccccc12)C1CCCCC1 [Compound 57]	113
O=S(=O)(c1ccccc1)n1cc(CN(CCNC2CCCCC2)Cc2cccnc2)c2ccccc21 [Compound 25]	99
O=S(=O)(c1ccccc1)n1cc(CN(Cc2ccnc(F)c2)CC2CCCN(C3CCCCC3)C2)c2ccccc21 (stereo not shown) [Compound 19]	169

* * *

systemName: IL-4 (Homo sapiens, UniProt P05112)
Sequence (P05112 25-153, species assumed): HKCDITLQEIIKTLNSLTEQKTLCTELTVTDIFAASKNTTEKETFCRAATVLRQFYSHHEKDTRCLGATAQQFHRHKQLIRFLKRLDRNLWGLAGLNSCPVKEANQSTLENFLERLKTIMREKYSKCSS
experimentNotes: Immunoassay binding test, IL-4
testSettings: 100 μM
Method: Microtiter plates (96 wells) are covered with 100 μl of receptor per well, and incubated overnight at 4° C. The following day, after 2 washes in PBS/Tween20, the plates are saturated with 150 μl of PBS/BSA 2% per well, for 2 h at 37° C. […] The plates are then read with a spectrophotometer at 450 nm, measuring the optical density for each well. […]
valueType: BINDING IL4 % Neutra at 100 μM (%)

CN(CCCCN(Cc1cccnc1F)Cc1cn(S(=O)(=O)c2ccccc2)c2ccccc12)C1CCC1 [Compound 70]	92.4
CN(CCCCCN(Cc1ccncc1)Cc1cn(-c2cccc(C(F)(F)F)c2)c2ccccc12)C1CCCCC1 [Compound 39]	96
O=S(=O)(c1ccccc1)n1cc(CN(CCCCNCc2cccnc2F)Cc2cn(S(=O)(=O)c3ccccc3)c3ccccc23)c2ccccc21 [Compound 88]	69.0
O=S(=O)(c1ccccc1)n1cc(CN(CCCNC2CCCCC2)Cc2ccncc2)c2ccccc21 [Compound 8]	98.1
O=S(=O)(c1ccccc1)n1cc(CN(CCCCCNC2CCCCC2)Cc2cccnc2)c2ccccc21 [Compound 34]	95.4
Fc1ncccc1CN(Cc1cn(-c2cccc(C(F)(F)F)c2)c2ccccc12)CC1CCCN(C2CCCCC2)C1 (stereo not shown) [Compound 42]	94.4
O=S(=O)(c1ccccc1)n1cc(CN(Cc2ccccn2)CC2CCCN(C3CCCCC3)C2)c2ccccc21 (stereo not shown) [Compound 1]	97.5

* * *

systemName: IL-6 (Homo sapiens)
Sequence (P05231 30-212, species assumed): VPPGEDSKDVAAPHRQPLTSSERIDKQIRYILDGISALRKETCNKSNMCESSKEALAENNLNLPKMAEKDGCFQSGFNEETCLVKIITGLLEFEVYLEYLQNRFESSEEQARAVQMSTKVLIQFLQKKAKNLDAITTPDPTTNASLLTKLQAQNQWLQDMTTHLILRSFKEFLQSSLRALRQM
experimentNotes: Immunoassay binding test, IL-6 (gp130 receptor, IL-6Ra present)
testSettings: IL-6Ra 200 ng/ml
Method: Microtiter plates (96 wells) are covered with 100 μl of receptor per well, and incubated overnight at 4° C. The following day, after 2 washes in PBS/Tween20, the plates are saturated with 150 μl of PBS/BSA 2% per well, for 2 h at 37° C. […] The plates are then read with a spectrophotometer at 450 nm, measuring the optical density for each well. […]
Measured BINDING IL6 % Neutra at 100 μM, listed per entry for reference.
valueType: BINDING IL6 % Neutra at 100 μM (%)

CCN(CC)S(=O)(=O)NCCCCN(Cc1cccnc1F)Cc1cn(S(=O)(=O)c2ccccc2)c2ccccc12	1
CN(CCCN(Cc1ccncc1)Cc1cn(-c2cccc(C(F)(F)F)c2)c2ccccc12)C1CCCCC1	2.8
CN(CCCCN(Cc1cccnc1F)Cc1cn(S(=O)(=O)c2ccccc2)c2ccccc12)C1CCC1	1
O=S(=O)(c1ccccc1)n1cc(CN(Cc2cccc(F)n2)CC2CCCN(C3CCCCC3)C2)c2ccccc21 (stereo not drawn)	0
FC(F)(F)c1cccc(-n2cc(CN(CCCCNC3CCCCC3)Cc3cccnc3)c3ccccc32)c1	3.7
O=S(=O)(NCCCCN(Cc1cccnc1F)Cc1cn(S(=O)(=O)c2ccccc2)c2ccccc12)N1CCOCC1	5
O=S(=O)(c1ccccc1)n1cc(CN(CCNC2CCCCC2)Cc2cccnc2)c2ccccc21	−15.3
O=S(=O)(c1ccccc1)n1cc(CN(CCOCCNC2CCCCC2)Cc2cccnc2F)c2ccccc21	0
CN(CCN(Cc1ccncc1)Cc1cn(-c2cccc(C(F)(F)F)c2)c2ccccc12)C1CCCCC1	1.7
CN(CCCN(Cc1ccncc1)Cc1cn(S(=O)(=O)c2ccccc2)c2ccccc12)C1CCCCC1	−3
CC(=O)NCCCCN(Cc1cccnc1F)Cc1cn(S(=O)(=O)c2ccccc2)c2ccccc12	3
CCN(CCOCCN(Cc1cccnc1F)Cc1cn(S(=O)(=O)c2ccccc2)c2ccccc12)C1CCCC1	0
O=S(=O)(c1ccccc1)n1cc(CN(CCCCCNC2CCCCC2)Cc2ccnc(F)c2)c2ccccc21	0
CN(C)S(=O)(=O)NCCCCN(Cc1cccnc1F)Cc1cn(S(=O)(=O)c2ccccc2)c2ccccc12	0
NCCN(Cc1cccnc1)Cc1cn(S(=O)(=O)c2ccccc2)c2ccccc12	0
CN(CCCCCN(Cc1cccnc1)Cc1cn(-c2cccc(C(F)(F)F)c2)c2ccccc12)C1CCCCC1	16.4
CN(CCCCN(Cc1cccnc1)Cc1cn(-c2cccc(C(F)(F)F)c2)c2ccccc12)C1CCCCC1	5.6
CCCN(CCCCN(Cc1cccnc1F)Cc1cn(S(=O)(=O)c2ccccc2)c2ccccc12)C1CCCC1	0
CN(CCCCCN(Cc1cccc(F)n1)Cc1cn(S(=O)(=O)c2ccccc2)c2ccccc12)C1CCCCC1	0
CCCN(CCOCCN(Cc1cccnc1F)Cc1cn(S(=O)(=O)c2ccccc2)c2ccccc12)C1CCCC1 [Compound 108]	0
CN(CCCCN(Cc1cccnc1F)Cc1cn(S(=O)(=O)c2ccccc2)c2ccccc12)C1CCCC1	3
CCN(CCCCN(Cc1cccnc1F)Cc1cn(S(=O)(=O)c2ccccc2)c2ccccc12)C1CCCCC1	3
CN(CCCCCN(Cc1ccc(F)nc1)Cc1cn(S(=O)(=O)c2ccccc2)c2ccccc12)C1CCCCC1	1
CN(CCCCN(Cc1ccncc1)Cc1cn(S(=O)(=O)c2ccccc2)c2ccccc12)C1CCCCC1	16.3
O=S(=O)(c1ccccc1)n1cc(CN(CCNC2CCCCC2)Cc2ccncc2)c2ccccc21	−17.2
O=S(=O)(c1ccccc1)n1cc(CN(CCCCNC2CCCCC2)Cc2cccc(F)n2)c2ccccc21	0
CN(CCN(Cc1ccncc1)Cc1cn(S(=O)(=O)c2ccccc2)c2ccccc12)C1CCCCC1	12.4
FC(F)(F)c1cccc(-n2cc(CN(CCNC3CCCCC3)Cc3ccncc3)c3ccccc32)c1	17.3
CCCCN(CCOCCN(Cc1cccnc1F)Cc1cn(S(=O)(=O)c2ccccc2)c2ccccc12)C1CCCC1	1
O=C(NCCCCN(Cc1cccnc1F)Cc1cn(S(=O)(=O)c2ccccc2)c2ccccc12)N1CCOCC1	3

* * *

systemName: IL-13 (Homo sapiens, UniProt P35225)
Sequence (P35225 25-146, species assumed): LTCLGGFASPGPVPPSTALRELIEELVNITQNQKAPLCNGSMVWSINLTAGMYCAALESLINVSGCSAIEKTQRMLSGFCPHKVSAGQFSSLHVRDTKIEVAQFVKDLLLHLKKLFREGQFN
Measured IC50, listed per entry for reference.
valueType: IC50

CN(CCCN(Cc1ccncc1)Cc1cn(-c2cccc(C(F)(F)F)c2)c2ccccc12)C1CCCCC1	> 50 µM
CCN(CCOCCN(Cc1cccnc1F)Cc1cn(S(=O)(=O)c2ccccc2)c2ccccc12)C1CCCCC1 [Compound 100]	> 50 µM
CCN(CCOCCN(Cc1cccnc1F)Cc1cn(S(=O)(=O)c2ccccc2)c2ccccc12)C1CCCCC1 [Compound 93]	7.8 µM
CN(CCCCN(Cc1ccncc1)Cc1cn(-c2cccc(C(F)(F)F)c2)c2ccccc12)C1CCCCC1	> 50 µM
O=S(=O)(c1ccccc1)n1cc(CN(CCCCNC2CCC2)Cc2cccnc2F)c2ccccc21	> 50 µM
O=S(=O)(c1ccccc1)n1cc(CN(CCCCCNCc2cccnc2F)Cc2cccnc2F)c2ccccc21	38.5 µM
O=S(=O)(c1ccccc1)n1cc(CN(CCCCNC2CCCCCCC2)Cc2cccnc2F)c2ccccc21	> 50 µM

* * *

systemName: TNFa/TNFRI interaction (Homo sapiens)
experimentNotes: TNFa/TNFRI interaction displacement test
Type: binding
testSettings: compounds at 50 μM; human TNFRI 100 ng/ml
valueType: Displacement (%)

CN(CCCCCN(Cc1cccc(F)n1)Cc1cn(S(=O)(=O)c2ccccc2)c2ccccc12)C1CCCCC1	85
CCN(CCCCN(Cc1cccnc1F)Cc1cn(S(=O)(=O)c2ccccc2)c2ccccc12)C1CCCCC1	215
CN1CCN(S(=O)(=O)n2cc(CN(CCCCN(C)C3CCCCC3)Cc3cccnc3F)c3ccccc32)CC1	117
FC(F)(F)c1cccc(-n2cc(CN(CCCCCNC3CCCCC3)Cc3ccncc3)c3ccccc32)c1	123

* * *

systemName: TNFa/TNFRI interaction (Homo sapiens)
experimentNotes: TNFa/TNFRI interaction displacement test
Type: binding
testSettings: compounds at 50 μM; human TNFRI 100 ng/ml
valueType: Displacement (%)

O=S(=O)(c1ccccc1)n1cc(CN(Cc2cccnc2)CC2CCCN(C3CCCCC3)C2)c2ccccc21 (stereo not drawn) [Compound 3]	196
CCCCN(CCOCCN(Cc1cccnc1F)Cc1cn(S(=O)(=O)c2ccccc2)c2ccccc12)C1CCCCC1 [Compound 102]	138
CCn1cc(CN(CCCCN(C)C2CCCCC2)Cc2cccnc2F)c2ccccc21 [Compound 96]	26
FC(F)(F)c1cccc(-n2cc(CN(CCCCCNC3CCCCC3)Cc3cccnc3)c3ccccc32)c1 [Compound 38]	139
O=S(=O)(c1ccccc1)n1cc(CN(CCCCCNC2CCCCC2)Cc2ccc(F)nc2)c2ccccc21 [Compound 56]	124
CCCCN(CCOCCN(Cc1cccnc1F)Cc1cn(S(=O)(=O)c2ccccc2)c2ccccc12)C1CCCCC1 [Compound 99]	173
CCCN(CCOCCN(Cc1cccnc1F)Cc1cn(S(=O)(=O)c2ccccc2)c2ccccc12)C1CCCC1 [Compound 108]	165
CN1CCN(C(=O)NCCCCN(Cc2cccnc2F)Cc2cn(S(=O)(=O)c3ccccc3)c3ccccc23)CC1 [Compound 83]	93
CCN(CCOCCN(Cc1cccnc1F)Cc1cn(S(=O)(=O)c2ccccc2)c2ccccc12)C1CCCC1 [Compound 107]	169
CN(CCCN(Cc1ccncc1)Cc1cn(-c2cccc(C(F)(F)F)c2)c2ccccc12)C1CCCCC1 [Compound 14]	149
CN(CCCN(Cc1cccnc1)Cc1cn(S(=O)(=O)c2ccccc2)c2ccccc12)C1CCCCC1 [Compound 9]	175
FC(F)(F)c1cccc(-n2cc(CN(CCNC3CCCCC3)Cc3ccncc3)c3ccccc32)c1 [Compound 29]	103
CN(CCCCN(Cc1cccnc1F)Cc1cn(S(=O)(=O)N2CCCC2)c2ccccc12)C1CCCCC1 [Compound 110]	83
O=S(=O)(c1ccccc1)n1cc(CN(CCCCN(C2CCC2)C2CCC2)Cc2cccnc2F)c2ccccc21 [Compound 86]	188
NS(=O)(=O)NCCCCN(Cc1cccnc1F)Cc1cn(S(=O)(=O)c2ccccc2)c2ccccc12 [Compound 77]	35
